Source of measurements: patent US20230365659A1

Measured kon by item
target: T1, SARS-CoV-2 spike RBD variant strain (SPD-C52Hn, Acro Biosystems, N501Y) (SARS-CoV-2, UniProt P0DTC2 319-537); assay: BLI (Octet), biotinylated RBD on SA sensor, VHH as analyte, 1:1 fit
T1 construct: domain: RBD
Kindly format the answer as number then unit.

binder: Bacillus subtilis-derived VHH-COVE2 (VHH) VHH: AEVQLVESGGGLVQAGDSLRLSCAATRRTSSTYAMGWFRQAPGKGLEWVAAISWDGGRTYYAESVKGRFTISRDNAKNTVYLQMNSLKPEDTAVYYCYSFGGSDFLMDYWGQGTQVTVSSGGGSHHHHHH
kon: 109000 M⁻¹ s⁻¹
//
binder: Bacillus subtilis-derived VHH-COVE7 (VHH) VHH: EVQLVESGGGLVQAGDSLRLSCTASGRTFSSCAMGWFRQAPGKEREFVAAISRGGGSTSYADSVKGRFTISKDRARNTAYLEMNSLKPEDTAIYYCYAVFPSGGDYWGQGTQVTVSS
kon: 73300 M⁻¹ s⁻¹
//
binder: Bacillus subtilis-derived VHH-COVE8 (VHH) VHH: EVQLVESGGGLVQPGGSLTLSCAASGQTFSSYNMAWFRQSPGKEREFVATISWGGGSTGYADSVKGRFTISRDHAKNTVYLQMKDLKPEDTGAYYCYLVGLFGIQASDYWGQGTQVTVSS
kon: 55300 M⁻¹ s⁻¹
//
binder: Bacillus subtilis-derived VHH-COVE5 (VHH) VHH: EVQLVESGGGLVQAGGSLRLSCTASDQIFDNYNMAWFRQSPGKEREFVAALSWGDSNTGYADSVKGRFTISRDNAKNTVYLQMNSLKPEDTAVYYCYAVTWLRGDYWGQGTQVTVSS
kon: 91100 M⁻¹ s⁻¹

Proceed to the following item.
Problem: Look at this binder and give its reported kon. Bacillus subtilis-derived VHH-COVE9 (VHH) VHH: EVQLVESGGGLVQPGGSLRLSCAASGTIFSTNAMSWYRQAPGKQRELVAAITSGGNTNYADSVKGRFTISRDNAKNTVYLQMNSLKPEDTAVYYCNAPGVVTGSYDVRNYWGQGTQVTVSS
Solution: 386000 M⁻¹ s⁻¹
